# Test system: SNB-19
# assay-remarks: NCI tumour cell line growth inhibition, 48 h
Active and inactive are the calls of the source. Cut-off read from the data, not from the text of the source: active = GI50 up to about 1.1 µM and inactive = higher.
Give your call using only these classes: true (1) for active, false (0) for inactive

The examples below pair each entry with its known result.
molecule	class-assignment
O=C1C(CN(Cc2ccccc2)Cc2ccccc2)CCCC1CN(Cc1ccccc1)Cc1ccccc1 (centres undefined)	false (0)
CSc1nc(NC2OC(COC(C)=O)C(OC(C)=O)C(OC(C)=O)C2OC(C)=O)c(/N=C(\C)C(C)=O)c(=O)n1C (centres undefined)	false (0)
O=C(c1ccco1)N(C(=S)N1CCN(c2ccccc2)CC1)c1ccccc1	false (0)
CC(C)CC(NC(=O)OC(C)(C)C)C(=O)Nc1ccc(Nc2nc(F)nc(-c3c4ccccc4cn3C)n2)cc1 (centres undefined)	false (0)
CCCCCCC1NN(C(C)=O)C(CCCCCC)NN1C(C)=O (centres undefined)	false (0)
COc1cc(S(=O)(=O)Nc2ccc(-c3csc(N4C(=O)C(Cl)C4c4ccccc4O)n3)cc2)ccc1Cl (centres undefined)	false (0)
CSC1(C)C(=O)Nc2c(OCc3ccccc3)cc([N+](=O)[O-])cc21 (centres undefined)	false (0)
O=C1O[C@H]2C3C4CCC(C4[C@@H]2I)[C@H]13 (some centres undefined)	false (0)
CCCCCCCCCCCCn1[nH]c(C)c(C(=S)SCCCCCCCC)c1=O	false (0)
O=C(CCC(NC(=O)OCc1ccccc1)C(=O)OCc1ccccc1)Nc1cccc(OCc2ccccc2)c1 (centres undefined)	false (0)

input: Query: recorded result category for CCOC(=O)CCC(NC(=O)Cc1ccc(Nc2nc3cc(F)c(F)cc3nc2C(=O)OCC)cc1)C(=O)OCC (centres undefined) in this test
output: false (0)

input: Query: recorded result category for Cc1nc(N)nc(N)c1CCCCc1ccc(N)cc1 in this test
output: false (0)

input: Query: recorded result category for COCC1OC(N2C(=O)NC(=O)[C@@H]3C=C4CCCCC4=C[C@@H]32)C(OC)C1OC (some centres undefined) in this test
output: false (0)

input: Query: recorded result category for CC(C)c1cc(C(C)C)c(P2(=O)CC3C(Cl)(Cl)C3(C)C2)c(C(C)C)c1 (centres undefined) in this test
output: false (0)

input: Query: recorded result category for O=C1Nc2ccccc2C1S(=O)(=O)c1ccccc1 (centres undefined) in this test
output: false (0)

input: Query: recorded result category for CCO[C@]12C[C@H](OC)[C@@]3(O)CC(C1[C@H]3OCc1ccccc1)C13C4C2[C@H](OC)C1[C@](COC)(CN4CC)[C@H](O)C[C@@H]3OC (some centres undefined) in this test
output: false (0)

input: Query: recorded result category for CC(=O)OCC1=CC2CCC3C(C)(CCC[C@]3(C)COC(C)=O)C23CC[C@H]1C3 (some centres undefined) in this test
output: false (0)

input: Query: recorded result category for Cc1c2c(cc3c1[nH]c1ccccc13)C(c1ccc(Cl)cc1)=NCC2 in this test
output: true (1)

input: Query: recorded result category for CN(C)NC(=O)/C(=C/c1ccc(Cl)cc1)NC(=O)c1ccccc1 in this test
output: false (0)

----------
# Tested on: SW-620
# assay-remarks: NCI tumour cell line growth inhibition, 48 h
Activity calls are given as the source filed them. No stated cut-off is given here; in the data, active = GI50 up to about 1.1 µM and inactive = higher.
Give your call using only these classes: active, inactive

The examples below pair each entry with its known result.
molecule	system	class-assignment
Cc1c2cc[n+](C)cc2c(C)c2c1[nH]c1ccccc12	SW-620	active
COC(=O)CC1(O)C(/C=C/c2ccccc2)C(C(=O)OC)C(=O)C(C(=O)OC)C1C(=O)OC (centres undefined)	SW-620	inactive
COc1c(CC(C)O)c2c3c(CC(C)O)c(OC)c(=O)c4c(O)cc5c(c6c(cc(O)c(c1=O)c62)OCO5)c43 (centres undefined)	SW-620	inactive
CC1(C)C(=O)C(C)(C)C12SSC1(S2)C(C)(C)C(=O)C1(C)C	SW-620	inactive
c1ccc2c(c1)OC(N1CCCC1)c1cnc(N3CCOCC3)nc1-2 (centres undefined)	SW-620	inactive
COc1ccc(CCc2ccc(O)c(C(=O)O)c2)cc1OC	SW-620	inactive

input: Query: recorded result category for CC1(C)OC2OC(COC(=O)C(c3ccccc3)c3ccccc3)C3OC(C)(C)OC3C2O1 (centres undefined) in this test
output: inactive

input: Query: recorded result category for COc1ccc(/C=C/C(=O)c2cc(CN(C)C)c(O)c(CN(C)C)c2)cc1 in this test
output: inactive

input: Query: recorded result category for O=C1C2c3[nH]c4ccccc4c3[C@@H]3CCCCC3C2C(=O)N1c1ccccc1 (some centres undefined) in this test
output: inactive

input: Query: recorded result category for COc1ccc(C(=O)c2c3cc(OC)c(OC)c(OC)c3cc[n+]2C)cc1 in this test
output: inactive

input: Query: recorded result category for C=CC1(c2ccc3ccccc3c2)OCC(CC)(CC)CO1 in this test
output: inactive

input: Query: recorded result category for C[C@]12CC[C@H](O)C=C1CC[C@@H]1[C@@H]2CC[C@]2(C)C(=N/O)/C(=C/c3ccncc3)C[C@@H]12 in this test
output: inactive

input: Query: recorded result category for O=C(NCCCNCCCCNCCCNC(=O)C(F)(F)F)C(F)(F)F in this test
output: inactive

input: Query: recorded result category for CCOC(=O)CC[C@H](NC(=O)[C@H](N)Cc1ccc(N(CCCl)CCCl)cc1)C(=O)OCC in this test
output: inactive

input: Query: recorded result category for Cc1nn(C(=O)Cc2ccccc2)c2c1C(c1ccc(O)cc1O)SC(=N)N2 (centres undefined) in this test
output: inactive

input: Query: recorded result category for CSC1=N/C(=C\c2c[nH]c3ccccc23)C(=O)N1 in this test
output: inactive

input: Query: recorded result category for COc1cc2c(cc1OCc1ccccc1)NC(=O)[C@@H]1CCCN1C2=O in this test
output: inactive

input: Query: recorded result category for Cc1cccc(N2C(=O)/C(=C/c3ccc(N(CCC#N)CCC#N)cc3C)N=C2c2cc([N+](=O)[O-])ccc2Cl)c1 in this test
output: inactive

input: Query: recorded result category for CC/C=C/C[C@H](O)[C@H]1C[C@H]2O[C@H](CC(=O)OC)C[C@H]2O1 in this test
output: inactive
